Source of measurements: patent US20240132589A1

biological target: T1, Recombinant human LILRB2 protein (ELISA antigen) (human, UniProt Q8N423 22-460); assay: ELISA, immobilized LILRB2-His; conditioned media of transient transfections
T1 construct: also called LILRB2-His; recombinant LILRB2
T1 sequence (Q8N423 other isoform, or with tags, fused parts or gaps limits assumed): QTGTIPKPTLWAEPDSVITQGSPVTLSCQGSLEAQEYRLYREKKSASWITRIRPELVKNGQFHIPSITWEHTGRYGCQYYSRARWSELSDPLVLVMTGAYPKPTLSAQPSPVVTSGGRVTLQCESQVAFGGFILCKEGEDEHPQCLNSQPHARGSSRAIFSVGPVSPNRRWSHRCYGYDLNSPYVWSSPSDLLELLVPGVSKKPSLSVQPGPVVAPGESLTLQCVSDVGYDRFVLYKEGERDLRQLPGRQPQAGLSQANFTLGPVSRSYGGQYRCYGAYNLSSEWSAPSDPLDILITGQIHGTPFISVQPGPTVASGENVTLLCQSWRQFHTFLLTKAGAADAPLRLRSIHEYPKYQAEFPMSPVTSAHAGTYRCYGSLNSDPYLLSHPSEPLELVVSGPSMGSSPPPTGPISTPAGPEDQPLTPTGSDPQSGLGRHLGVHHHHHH
QUANTITY_KIND: EC50 (ng/mL)
Express the result in ng/mL but write the number alone.

>  <BINDER>
B2H4-41 (antibody, V domains shown, Humanized variant, human IgG4 / kappa) VH: EVQLLESGGRLVQPGTSLRLSCAVSGFSLSTYAMSWVRQAPGKGLEWIGWIYNDGSTYYAAWAKGRFTISKDTSKTTLYLQMNSLTVEDTATYFCAREGDYIGYFNIWGQGTLVTVSS VL: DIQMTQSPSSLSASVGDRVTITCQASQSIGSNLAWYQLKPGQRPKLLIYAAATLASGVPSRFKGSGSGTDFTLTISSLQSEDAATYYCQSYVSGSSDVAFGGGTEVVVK

>  <EC50 [ng/mL]>
3.76

$$$$
>  <BINDER>
B2H4-52 (antibody, V domains shown, Humanized variant, human IgG4 / kappa) VH: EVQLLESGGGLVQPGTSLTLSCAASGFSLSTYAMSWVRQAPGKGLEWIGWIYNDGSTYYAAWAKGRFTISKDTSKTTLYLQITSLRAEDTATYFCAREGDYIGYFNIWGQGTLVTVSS VL: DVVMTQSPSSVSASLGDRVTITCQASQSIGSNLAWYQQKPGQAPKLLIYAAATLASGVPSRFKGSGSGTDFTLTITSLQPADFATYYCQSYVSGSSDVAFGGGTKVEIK

>  <EC50 [ng/mL]>
5.37

$$$$

Data point: B2H4-44 (antibody, V domains shown, Humanized variant, human IgG4 / kappa) VH: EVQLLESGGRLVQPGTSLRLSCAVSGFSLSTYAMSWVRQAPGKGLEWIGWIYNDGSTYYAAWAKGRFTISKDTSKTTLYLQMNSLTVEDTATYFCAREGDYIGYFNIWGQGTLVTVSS VL: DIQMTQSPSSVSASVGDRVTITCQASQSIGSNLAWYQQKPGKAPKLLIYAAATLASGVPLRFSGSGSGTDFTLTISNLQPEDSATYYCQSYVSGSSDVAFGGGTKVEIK ; EC50 = 4.6

Data point: B2H4-25 (antibody, V domains shown, Humanized variant, human IgG4 / kappa) VH: EVQLVESGGDLATPGGSLRLSCAVSGFSLSTYAMSWVRQAPGKGLEWVGWIYNDGSTYYAAWAKGRFTISKDTSKTTVYLQMTSLRAEDTALYFCAREGDYIGYFNIWGQGTLVTVSS VL: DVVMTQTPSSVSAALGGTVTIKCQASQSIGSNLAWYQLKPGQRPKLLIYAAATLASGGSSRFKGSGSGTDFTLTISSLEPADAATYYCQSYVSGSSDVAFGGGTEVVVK ; EC50 = 4.56
